# TESTED_SYSTEM: Androgen Receptor (AR) (Homo sapiens, UniProt P10275, T878A)
# Construct: cell based immuno-fluorescence assay using the LNCaP prostate epithelial cell line
# Sequence (P10275 whole entry T878A): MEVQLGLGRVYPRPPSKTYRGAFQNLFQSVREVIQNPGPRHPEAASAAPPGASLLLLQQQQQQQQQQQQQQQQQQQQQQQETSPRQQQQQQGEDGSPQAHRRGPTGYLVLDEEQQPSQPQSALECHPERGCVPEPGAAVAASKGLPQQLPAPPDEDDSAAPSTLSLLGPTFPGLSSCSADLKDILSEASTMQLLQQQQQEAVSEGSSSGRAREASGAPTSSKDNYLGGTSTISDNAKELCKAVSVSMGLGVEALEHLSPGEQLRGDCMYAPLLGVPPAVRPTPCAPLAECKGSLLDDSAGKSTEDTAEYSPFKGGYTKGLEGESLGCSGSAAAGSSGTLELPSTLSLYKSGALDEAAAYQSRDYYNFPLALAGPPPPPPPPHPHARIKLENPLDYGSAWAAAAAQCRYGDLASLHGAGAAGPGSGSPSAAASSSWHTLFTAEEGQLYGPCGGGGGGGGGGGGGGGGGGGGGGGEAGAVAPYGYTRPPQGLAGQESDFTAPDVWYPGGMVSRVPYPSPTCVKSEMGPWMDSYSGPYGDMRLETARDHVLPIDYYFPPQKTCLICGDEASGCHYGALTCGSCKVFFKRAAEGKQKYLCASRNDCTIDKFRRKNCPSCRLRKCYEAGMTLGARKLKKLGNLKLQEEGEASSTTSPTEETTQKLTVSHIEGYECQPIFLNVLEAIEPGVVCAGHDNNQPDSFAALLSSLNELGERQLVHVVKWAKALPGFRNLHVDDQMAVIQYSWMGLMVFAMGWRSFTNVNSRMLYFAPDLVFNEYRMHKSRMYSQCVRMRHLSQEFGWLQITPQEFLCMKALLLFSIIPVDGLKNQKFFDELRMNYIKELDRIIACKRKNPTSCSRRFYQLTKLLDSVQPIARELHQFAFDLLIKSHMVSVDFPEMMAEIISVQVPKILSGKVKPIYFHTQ
# ASSAY_INFO: LNCaP Androgen Receptor Down-Regulation Cell Assay
# MEASUREMENT_CONTEXT: LNCaP prostate carcinoma cell line; 20-22 hours incubation; immunofluorescence; 50% reduction of the AR signal
pIC50: −log10 of the molar value.
OBSERVED_PROPERTY: pIC50

{"columns": ["COMPOUND", "pIC50"],
 "data": [
  ["CC(=O)N1CCCN([C@H](C)COc2ccc(C3(O)CCN(c4ccc5nnc(C(F)(F)F)n5n4)CC3)cc2)CC1 (single isomer, unassigned) [Example 46]", 7.74],
  ["CC(=O)N1CCN(CCCOc2ccc(N3CCN(c4ccc5nnc(C(F)(F)F)n5n4)CC3)cc2)CC1 [Example 1.1]", 5.82],
  ["COC[C@@H](CN1CCN(C(C)=O)CC1)Oc1ccc(C2CCN(c3ccc4nnc(C(F)(F)F)n4n3)CC2)cc1 [Example 29]", 6.31]
]}

I = O=C1CN(CCOc2ccc(C3(O)CCN(c4ccc5nnc(C(F)(F)F)n5n4)CC3)cc2)CCN1C1CC1 [Example 38]
II = CCN1CCN(CCOc2ccc(C3CCN(c4ccc5nnc(C(F)(F)F)n5n4)CC3)cc2)CC1=O [Example 18]
III = CC(=O)N1CCCN(CCOc2ccc(C3CCN(c4ccc5nnc(C(F)(F)F)n5n4)CC3)cc2)CC1 [Example 14]
q: Please put the entries in order of rising pIC50. Please, when replying, give the labels in the order that was requested.
a: I, II, III

1 = CC(C)N1CCN(CCCOc2ccc(C3CCN(c4ccc5nnc(C(F)(F)F)n5n4)CC3)cc2)CC1=O [Example 16]
2 = CN1CCN(CCOc2ccc(C3(O)CCN(c4ccc5nnc(C(F)(F)F)n5n4)CC3)c(F)c2)CC1=O [Example 36]
q: Problem: Given the entries 1 and 2 , determine which has the lower reported pIC50. Lab note: record the label of whichever item you select.
a: 1

1 = CN1CCN(CCOc2ccc(C3(O)CCN(c4ccc5nnc(C(F)(F)F)n5n4)CC3)cc2F)CC1=O [Example 12]
2 = CC(=O)N1CCCN([C@H](C)COc2ccc(C3(O)CCN(c4ccc5nnc(C(F)(F)F)n5n4)CC3)cc2)CC1 (single isomer, unassigned) [Example 45]
3 = CC(=O)N1CCN(CCOc2ccc(C3(O)CCN(c4ccc5nnc(C(F)(F)F)n5n4)CC3)c(F)c2)CC1 [Example 35]
4 = COC[C@H](CN1CCN(C(C)=O)CC1)Oc1ccc(C2CCN(c3ccc4nnc(C(F)(F)F)n4n3)CC2)cc1 [Example 28]
q: Arrange these compounds by their pIC50, starting with the largest number. Please, when replying, give the labels in the order that was requested.
a: 2, 3, 4, 1
(2: 7.09, 3: 6.85, 4: 6.40, 1: 6.17)

a = CN1CCN(CCOc2ccc(C3CCN(c4ccc5nnc(C(F)(F)F)n5n4)CC3)cn2)CC1=O [Example 11]
b = CC(=O)N1CCN(CCOc2ccc(C3CCN(c4ccc5nnc(C(F)(F)F)n5n4)CC3)cc2)C[C@H]1C [Example 34]
q: Problem: Given the entries a and b , determine which has the lower reported pIC50. Lab note: record the label of whichever item you select.
a: a

The values you see were collected from patent US20100292222A1.
